experimental system: EZH2 (Homo sapiens)
Sequence (Q15910 whole entry, species assumed): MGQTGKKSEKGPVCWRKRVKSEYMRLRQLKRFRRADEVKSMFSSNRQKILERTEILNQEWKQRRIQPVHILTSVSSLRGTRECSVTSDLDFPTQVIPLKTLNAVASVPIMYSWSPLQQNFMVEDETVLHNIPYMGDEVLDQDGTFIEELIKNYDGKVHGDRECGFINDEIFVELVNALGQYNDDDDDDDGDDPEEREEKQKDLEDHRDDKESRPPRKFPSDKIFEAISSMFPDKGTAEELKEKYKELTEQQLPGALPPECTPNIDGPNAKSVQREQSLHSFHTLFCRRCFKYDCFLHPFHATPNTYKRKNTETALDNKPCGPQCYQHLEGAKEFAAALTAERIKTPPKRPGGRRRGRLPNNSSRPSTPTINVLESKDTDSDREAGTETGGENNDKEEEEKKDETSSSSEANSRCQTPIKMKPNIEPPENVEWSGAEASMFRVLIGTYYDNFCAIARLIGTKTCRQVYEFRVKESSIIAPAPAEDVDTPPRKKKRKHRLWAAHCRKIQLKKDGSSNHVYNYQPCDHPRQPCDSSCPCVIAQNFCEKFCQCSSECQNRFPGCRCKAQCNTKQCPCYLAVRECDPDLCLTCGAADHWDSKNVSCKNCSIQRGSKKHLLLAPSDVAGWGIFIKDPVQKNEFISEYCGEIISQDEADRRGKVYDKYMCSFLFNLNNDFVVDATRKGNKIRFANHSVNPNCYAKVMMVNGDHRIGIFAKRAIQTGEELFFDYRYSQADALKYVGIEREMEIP
Sequence (O75530 whole entry partner, species assumed): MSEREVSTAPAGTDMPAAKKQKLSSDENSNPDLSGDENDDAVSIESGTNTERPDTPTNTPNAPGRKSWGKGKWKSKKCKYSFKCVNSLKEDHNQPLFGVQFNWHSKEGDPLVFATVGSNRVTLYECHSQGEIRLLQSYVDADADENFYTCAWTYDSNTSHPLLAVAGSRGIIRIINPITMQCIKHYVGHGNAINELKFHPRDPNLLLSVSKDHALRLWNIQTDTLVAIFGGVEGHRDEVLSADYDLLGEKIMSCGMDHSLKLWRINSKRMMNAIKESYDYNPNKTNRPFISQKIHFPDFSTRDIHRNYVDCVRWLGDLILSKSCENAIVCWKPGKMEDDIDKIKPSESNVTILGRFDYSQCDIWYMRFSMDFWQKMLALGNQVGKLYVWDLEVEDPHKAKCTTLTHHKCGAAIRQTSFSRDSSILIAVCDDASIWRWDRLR
Sequence (Q15022 whole entry partner, species assumed): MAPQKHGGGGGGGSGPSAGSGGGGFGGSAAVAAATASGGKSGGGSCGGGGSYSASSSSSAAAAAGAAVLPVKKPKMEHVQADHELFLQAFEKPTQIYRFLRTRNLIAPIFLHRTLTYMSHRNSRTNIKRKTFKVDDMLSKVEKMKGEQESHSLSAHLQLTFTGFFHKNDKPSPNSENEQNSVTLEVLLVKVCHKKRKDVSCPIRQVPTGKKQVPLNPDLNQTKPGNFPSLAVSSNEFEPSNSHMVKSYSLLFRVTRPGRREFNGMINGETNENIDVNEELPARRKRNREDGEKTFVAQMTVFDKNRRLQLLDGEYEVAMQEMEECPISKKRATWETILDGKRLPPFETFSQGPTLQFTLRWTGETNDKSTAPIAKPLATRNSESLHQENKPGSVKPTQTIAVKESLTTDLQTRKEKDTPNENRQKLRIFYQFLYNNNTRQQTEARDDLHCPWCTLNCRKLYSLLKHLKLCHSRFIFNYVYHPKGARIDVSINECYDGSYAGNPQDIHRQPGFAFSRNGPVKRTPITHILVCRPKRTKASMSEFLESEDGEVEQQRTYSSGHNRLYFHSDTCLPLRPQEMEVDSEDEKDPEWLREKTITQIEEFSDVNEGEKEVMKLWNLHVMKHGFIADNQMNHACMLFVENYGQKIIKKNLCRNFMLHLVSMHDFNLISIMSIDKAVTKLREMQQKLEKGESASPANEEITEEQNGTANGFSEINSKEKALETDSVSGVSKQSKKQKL
pIC50: −log10 of the molar value.

[
  {
    "compound": "CCCC[C@H](NC(=O)[C@@H](NC(=O)CNC(C)=O)C(C)C)C(=O)N[C@@H](CCCNC(=N)N)C(=O)N[C@H](C(N)=O)[C@@H](C)CC",
    "experimental system": "EZH2 (Homo sapiens)",
    "pIC50": "< 3.70"
  }
]

* * *

experimental system: PRMT6 (Homo sapiens)
Sequence (Q96LA8 whole entry, species assumed): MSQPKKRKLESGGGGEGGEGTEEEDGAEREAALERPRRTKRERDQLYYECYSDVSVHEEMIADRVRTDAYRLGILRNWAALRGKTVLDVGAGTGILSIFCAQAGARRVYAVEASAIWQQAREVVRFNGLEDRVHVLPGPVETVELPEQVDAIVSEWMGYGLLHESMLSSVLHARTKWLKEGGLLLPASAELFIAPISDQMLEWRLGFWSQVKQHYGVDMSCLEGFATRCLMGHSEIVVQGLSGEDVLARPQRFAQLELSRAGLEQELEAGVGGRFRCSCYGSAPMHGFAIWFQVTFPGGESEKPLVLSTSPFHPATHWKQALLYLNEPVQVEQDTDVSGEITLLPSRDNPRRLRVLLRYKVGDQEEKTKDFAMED
pIC50: −log10 of the molar value.

[
  {
    "compound": "CCCC[C@H](NC(=O)[C@@H](NC(=O)CNC(C)=O)C(C)C)C(=O)N[C@@H](CCCNC(=N)N)C(=O)N[C@H](C(N)=O)[C@@H](C)CC",
    "experimental system": "PRMT6 (Homo sapiens)",
    "pIC50": "< 3.70"
  }
]
